experiment: in vitro; conditions: human, 25% (v/v) normal human serum
Property measured: remaining at 1 h, 50 µg/mL (%)
# unit: % | format: bare number

>  <Compound>
CCCCCCC(CCCC)C(=O)N[C@@H](CCCNC(=N)N)C(=O)N[C@@H](CCCNC(=N)N)C(=O)NCCCC[C@H](NC(=O)[C@H](CCCNC(=N)N)NC(=O)[C@H](CCCNC(=N)N)NC(=O)C(CCCC)CCCCCC)C(N)=O (some centres unmarked)

>  <remaining at 1 h, 50 µg/mL (%)>
94.3

$$$$

// switching to the query compound
Looking for the measured remaining at 1 h, 50 µg/mL of CCCCCCC(CCCC)C(=O)N[C@@H](CCCNC(=N)N)C(=O)N[C@@H](CCCNC(=N)N)C(=O)N[C@@H](CSSC[C@H](NC(=O)[C@H](CCCNC(=N)N)NC(=O)[C@H](CCCNC(=N)N)NC(=O)C(CCCC)CCCCCC)C(N)=O)C(N)=O (some centres unmarked) , can you help?
92.2
